Data credit: patent US8389509B2

molecular target: UniProtKB Q99500; experiment: Method A: Receptor [35S] GTPγS Binding Assay, S1P3; format: biochemical; design: expressed in transfected cells; conditions: EDG3-Gal5-bla HEK293T cell membranes
Sequence (Q99500 whole entry): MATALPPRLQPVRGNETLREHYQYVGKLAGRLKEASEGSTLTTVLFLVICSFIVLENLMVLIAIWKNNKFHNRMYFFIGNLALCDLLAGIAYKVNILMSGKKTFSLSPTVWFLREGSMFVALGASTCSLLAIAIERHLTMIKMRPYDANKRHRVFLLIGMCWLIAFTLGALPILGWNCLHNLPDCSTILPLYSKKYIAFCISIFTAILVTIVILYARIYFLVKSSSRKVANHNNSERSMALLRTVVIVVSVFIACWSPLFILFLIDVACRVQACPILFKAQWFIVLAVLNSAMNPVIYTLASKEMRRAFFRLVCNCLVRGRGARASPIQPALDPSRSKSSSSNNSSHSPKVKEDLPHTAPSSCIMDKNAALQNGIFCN
readout_label: EC50 (µM)

INSERT INTO assay_data (compound, assay_result) VALUES
  ('CCCc1c(-c2nc(-c3ccc(CN4CC(C(=O)O)C4)cc3)no2)cnn1-c1ccccn1 [Example 6]', 2.9),
  ('O=C(O)C1CN(Cc2ccc(-c3noc(-c4cnn(-c5ccccc5)c4-c4cccnc4)n3)cc2)C1 [Example 15]', 3.6),
  ('O=C(O)C1CN(Cc2ccc(-c3noc(-c4cnn(-c5ccccn5)c4C(F)(F)F)n3)cc2)C1 [Example 1]', 6.7),
  ('Cc1c(-c2nc(-c3ccc(CN4CC(C(=O)O)C4)cc3)no2)cnn1-c1ccccc1 [Example 5]', 13);

---

target: S1P1 (Homo sapiens, UniProt P21453)
Sequence (P21453 whole entry): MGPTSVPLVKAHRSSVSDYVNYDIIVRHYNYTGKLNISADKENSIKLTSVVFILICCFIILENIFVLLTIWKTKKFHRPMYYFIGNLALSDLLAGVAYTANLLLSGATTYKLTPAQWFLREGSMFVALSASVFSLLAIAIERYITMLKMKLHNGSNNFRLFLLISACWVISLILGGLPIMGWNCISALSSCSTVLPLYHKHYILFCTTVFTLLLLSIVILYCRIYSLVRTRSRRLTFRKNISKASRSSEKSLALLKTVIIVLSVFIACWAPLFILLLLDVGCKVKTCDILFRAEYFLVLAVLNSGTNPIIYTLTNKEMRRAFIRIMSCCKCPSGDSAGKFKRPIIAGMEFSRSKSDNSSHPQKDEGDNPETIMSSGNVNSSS
pIC50: −log10 of the molar value.
Listing of recorded pIC50 by entry.
readout_label: pIC50

INSERT INTO measurements (smiles_structure, test_target, readout_label, assay_result) VALUES
  ('Cc1c(-c2nc(-c3ccc(CN4CC(C(=O)O)C4)cc3)no2)cnn1-c1ccccc1', 'S1P1 (Homo sapiens, UniProt P21453)', 'pIC50', 7.52),
  ('CC(C)CNc1c(-c2nc(-c3ccc(CN4CC(C(=O)O)C4)cc3)no2)cnn1-c1ccccc1', 'S1P1 (Homo sapiens, UniProt P21453)', 'pIC50', 8.77),
  ('O=C(O)C1CN(Cc2ccc(-c3noc(-c4cnn(-c5ccccc5)c4C(F)(F)F)n3)cc2)C1', 'S1P1 (Homo sapiens, UniProt P21453)', 'pIC50', 9.52);

---

biological target: S1P1 (Homo sapiens); construct: expressed in transfected cells; host or cells: CHO cells; assay: Method B: Receptor [35S] GTPγS SPA Binding Assay, S1P1; format: biochemical; conditions: Method B (SPA), S1P1 transfected CHO cell membranes
pEC50: −log10 of the molar value.
readout_label: pEC50

INSERT INTO results (smiles_structure, test_target, assay_result) VALUES
  ('O=C(O)C1CN(Cc2ccc(-c3noc(-c4cnn(-c5ccccc5)c4Cl)n3)cc2)C1', 'S1P1 (Homo sapiens)', 8.72),
  ('CCNc1c(-c2nc(-c3ccc(CN4CC(C(=O)O)C4)cc3)no2)cnn1-c1ccccc1', 'S1P1 (Homo sapiens)', 9.72),
  ('O=C(O)C1CN(Cc2ccc(-c3noc(-c4cnn(-c5ccccn5)c4C(F)(F)F)n3)cc2)C1', 'S1P1 (Homo sapiens)', 9.30),
  ('O=C(O)C1CN(Cc2ccc(-c3noc(-c4cnn(-c5ccccn5)c4C4CCCC4)n3)cc2)C1', 'S1P1 (Homo sapiens)', 10.06);

---

GTPγS S1P3/S1P1 (Method B): recorded values
molecular target: S1P1 (Homo sapiens, UniProt P21453); construct: expressed in transfected cells; host or cells: CHO cells; experiment: Method B: Receptor [35S] GTPγS SPA Binding Assay, S1P1; format: biochemical; conditions: ratio of S1P3 EC50 to S1P1 EC50, Method B
readout_label: GTPγS S1P3/S1P1 (Method B)

INSERT INTO results (compound, readout_label, assay_result) VALUES
  ('O=C(O)C1CN(Cc2ccc(-c3noc(-c4cnn(-c5ccccc5)c4Cl)n3)cc2)C1 [Example 11]', 'GTPγS S1P3/S1P1 (Method B)', '1,100'),
  ('CC(C)Nc1c(-c2nc(-c3ccc(CN4CC(C(=O)O)C4)cc3)no2)cnn1-c1ccccc1 [Example 3]', 'GTPγS S1P3/S1P1 (Method B)', '11,000'),
  ('O=C(O)C1CN(Cc2ccc(-c3noc(-c4cnn(-c5ccccn5)c4C(F)(F)F)n3)cc2)C1 [Example 1]', 'GTPγS S1P3/S1P1 (Method B)', '8,800'),
  ('O=C(O)C1CN(Cc2ccc(-c3noc(-c4cnn(-c5ccccc5)c4-c4cccnc4)n3)cc2)C1 [Example 15]', 'GTPγS S1P3/S1P1 (Method B)', '1,900'),
  ('O=C(O)C1CN(Cc2ccc(-c3noc(-c4cnn(-c5ccccc5)c4C(F)(F)F)n3)cc2)C1 [Example 2]', 'GTPγS S1P3/S1P1 (Method B)', '12,000'),
  ('CCNc1c(-c2nc(-c3ccc(CN4CC(C(=O)O)C4)cc3)no2)cnn1-c1ccccc1 [Example 4]', 'GTPγS S1P3/S1P1 (Method B)', '2,100'),
  ('O=C(O)C1CN(Cc2ccc(-c3noc(-c4cc(-c5ccccc5)c(C(F)(F)F)s4)n3)cc2)C1 [Comp. A, reference compound]', 'GTPγS S1P3/S1P1 (Method B)', 78),
  ('O=C(O)C1CN(Cc2ccc(-c3noc(-c4cnn(-c5ccccn5)c4C4CCCC4)n3)cc2)C1 [Example 7]', 'GTPγS S1P3/S1P1 (Method B)', '2,500'),
  ('O=C(O)C1CN(Cc2ccc(-c3noc(-c4cnn(-c5ccccn5)c4-c4ccccc4)n3)cc2)C1 [Example 10]', 'GTPγS S1P3/S1P1 (Method B)', '2,600'),
  ('CCCCNc1c(-c2nc(-c3ccc(CN4CC(C(=O)O)C4)cc3)no2)cnn1-c1ccccc1 [Example 13]', 'GTPγS S1P3/S1P1 (Method B)', 300),
  ('CC(C)CNc1c(-c2nc(-c3ccc(CN4CC(C(=O)O)C4)cc3)no2)cnn1-c1ccccc1 [Example 12]', 'GTPγS S1P3/S1P1 (Method B)', '35,000'),
  ('O=C(O)C1CN(Cc2ccc(-c3noc(-c4cnn(-c5ccccc5)c4Br)n3)cc2)C1 [Example 14]', 'GTPγS S1P3/S1P1 (Method B)', '3,400'),
  ('Cc1c(-c2nc(-c3ccc(CN4CC(C(=O)O)C4)cc3)no2)cnn1C1CCCCC1 [Example 9]', 'GTPγS S1P3/S1P1 (Method B)', 550);
